Tested on: OVCAR-4 ovarian
Method description: NCI-60 one-dose screen, 48 h (100 = growth as untreated, 0 = no growth, -100 = all killed)
Conditions: 10 µM unless noted
About 83,000 compounds went through this panel and 20% of them were active in at least one assay; those are over-represented in the sample as a whole.
Here, each record is paired with measured growth data.
# unit: % | format: bare number

Qu. # returns recorded growth (system: OVCAR-4 ovarian) for CCCCc1ccc(Nc2nnc(SCC(=O)NC(=O)NCC)s2)cc1
Ans. 104

Qu. What about this compound? COc1cc(C(=O)c2cnc(-c3ccc4cc[nH]c4c3)[nH]2)cc(OC)c1OC
Ans. 39.3
